remaining at 5 min values, listed per item
Assay: Conversion of the azolium compounds to ketoconazole / itraconazole on incubation in human plasma
Assay type: in vitro ADME
Settings: remaining parent compound, 10µg/ml, 37°C, incubation time 5 min, read-out: Observed (%) Comp. I
Description: The compounds of formula I were incubated with human plasma at a concentration of 10µg/ml at 37°C for up to 120 min.

compound	remaining at 5 min
CC(=O)Oc1ccc(C[n+]2ccn(C[C@]3(c4ccc(Cl)cc4Cl)OC[C@H](COc4ccc(N5CCN(C(C)=O)CC5)cc4)O3)c2)cc1 (relative stereo)	< 5%

Okay, next one:
Requested read-out: remaining at 5 min. Entry: CC(=O)Oc1ccc(C[n+]2ccn(C[C@]3(c4ccc(Cl)cc4Cl)OC[C@H](COc4ccc(N5CCN(C(C)=O)CC5)cc4)O3)c2)cc1C (relative stereo)
< 5%
